Measured pIC50, listed per entry for reference.
assay: in vitro; conditions: human, Cytotoxicity (IC50) Glucose, HepG2 cells in DMEM/10% FBS supplemented with glucose, 24 h
pIC50: −log10 of the molar value.
parameter: pIC50

compound	result
Cc1nn2c(=O)cc(CN3CCOCC3)[nH]c2c1-c1ccccc1 [Compound P10]	< 4.00
Cc1nn2c(=O)cc(Cc3ccccc3)[nH]c2c1-c1ccccc1 [Compound P8]	< 4.00
Cc1nn2c(=O)cc(CC3CCCCC3)[nH]c2c1-c1ccccc1 [Compound P9]	4.07
Cc1nn2c(=O)cc(-c3ccc(F)c(F)c3)[nH]c2c1-c1ccc(Cl)cc1 [Compound P25]	4.03
CC/C(=C(\c1ccccc1)c1ccc(OCCN(C)C)cc1)c1ccccc1 [Tamoxifen, reference compound]	5.38
Cc1nn2c(=O)cc(-c3ccc(Cl)c(Cl)c3)[nH]c2c1-c1ccc(F)cc1 [Compound P24]	< 4.00
Cc1nn2c(=O)cc(-c3ccc(Cl)c(Cl)c3)[nH]c2c1-c1ccccc1 [Compound P20]	< 4.00
O=c1cc(-c2ccc(F)c(F)c2)[nH]c2c(-c3ccccc3)c(C(F)(F)F)nn12 [Compound P27]	< 4.00
O=c1cc(-c2ccc(F)c(F)c2)[nH]c2c(-c3ccc(Cl)cc3)cnn12 [Compound P26]	4.24
Cc1nn2c(=O)cc(-c3ccccc3)[nH]c2c1-c1ccccc1 [Compound 1]	< 4.00
O=c1cc(-c2ccccc2)[nH]c2c(-c3ccccc3)cnn12 [Compound P22]	< 4.00
Cc1nn2c(=O)cc(-c3ccc(F)c(F)c3)[nH]c2c1-c1ccccc1 [Compound P19]	< 4.00
Cc1nn2c(=O)c(C)c(-c3ccccc3)[nH]c2c1-c1ccccc1 [Compound P6]	< 4.00
CC(C)c1nn2c(=O)cc(-c3ccccc3)[nH]c2c1-c1ccccc1 [Compound P23]	< 4.00
Cc1nn2c(=O)cc(-c3ccccc3)[nH]c2c1C [Compound P21]	< 4.00

---

tested on: Mtb H37Rv; assay: microbe, parasite or virus in culture; type: cell-based, Mycobacterium tuberculosis; conditions: Mycobacterium tuberculosis, H37RV; read-out: MIC in 7H9 GCas
Measured MIC, listed per entry for reference.

compound	relation sign	MIC / µM
O=c1cc(-c2ccccc2)[nH]c2c(-c3ccccc3)cnn12	=	6.25
COc1cc(-c2ccccc2)nc2c(-c3ccccc3)c(C)nn12 [Compound P1]	>	100
Cc1nn2c(=O)nc(-c3ccccc3)[nH]c2c1-c1ccccc1	=	50
Cc1nn2c(=O)c(C(F)(F)F)c(-c3ccccc3)[nH]c2c1-c1ccccc1	=	3.12
O=c1cc(CC2CCCCC2)[nH]c2c(-c3ccc(Cl)cc3)cnn12 [Compound 2, reference compound]	=	0.78

---

test: in vitro; details: human, Cytotoxicity (IC50) Galactose, HepG2 cells in DMEM/10% FBS with galactose, 24 h
pIC50: −log10 of the molar value.
Measured pIC50, listed per entry for reference.

chemical smiles	pIC50
Cc1nn2c(=O)cc(-c3ccc(F)c(F)c3)[nH]c2c1-c1ccccc1	4.23
Cc1nn2c(=O)cc(-c3ccc(Cl)c(Cl)c3)[nH]c2c1-c1ccc(F)cc1	4.41
CC(C)c1nn2c(=O)cc(-c3ccccc3)[nH]c2c1-c1ccccc1	4.06
O=c1cc(-c2ccc(F)c(F)c2)[nH]c2c(-c3ccc(Cl)cc3)cnn12	4.73
